Assign PBM binding z-score to each entry below.
- System: THRa:RXRa (NR concentration 90 nM, RXRa partner concentration 90 nM)
- ASSAY: PBM binding z-score (relative to random genomic background probes); higher = stronger binding; sequences stand for … in GC…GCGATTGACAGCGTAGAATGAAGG

Name the reported PBM binding z-score value associated with the sequence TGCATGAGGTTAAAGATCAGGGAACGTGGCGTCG
2.71

Lookup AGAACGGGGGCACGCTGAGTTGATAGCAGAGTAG
2.9

Lookup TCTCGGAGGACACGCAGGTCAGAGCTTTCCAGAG
2.63

Lookup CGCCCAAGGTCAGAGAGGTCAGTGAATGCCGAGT
4.15

Lookup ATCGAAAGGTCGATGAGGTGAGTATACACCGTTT
3.75

Lookup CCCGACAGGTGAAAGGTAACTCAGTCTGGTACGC
1.09

Lookup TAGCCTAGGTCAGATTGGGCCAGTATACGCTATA
3.56

Lookup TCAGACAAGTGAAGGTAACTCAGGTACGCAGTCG
1.1

Lookup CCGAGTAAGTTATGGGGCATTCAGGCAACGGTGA
0.0579

Lookup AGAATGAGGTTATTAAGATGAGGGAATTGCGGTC
2.08

Lookup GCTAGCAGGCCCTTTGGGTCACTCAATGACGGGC
1.67

###

- Tested on: VDR:RXRa (NR concentration 270 nM, RXRa partner concentration 90 nM)
- ASSAY: PBM binding z-score (relative to random genomic background probes); higher = stronger binding; sequences stand for … in GC…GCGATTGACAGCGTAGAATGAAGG
Assign PBM binding z-score to each entry below.
Format: numeric value only, no unit, no commentary.

Name the reported PBM binding z-score value associated with the sequence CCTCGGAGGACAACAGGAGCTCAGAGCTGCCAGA
-0.533

Lookup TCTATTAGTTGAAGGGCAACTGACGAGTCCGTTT
0.937

Lookup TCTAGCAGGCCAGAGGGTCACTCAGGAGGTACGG
1.56

Lookup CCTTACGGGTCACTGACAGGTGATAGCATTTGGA
4.2

Lookup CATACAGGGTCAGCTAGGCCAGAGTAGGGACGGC
3.8

Lookup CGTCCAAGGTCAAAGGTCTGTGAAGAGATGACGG
4.54

Lookup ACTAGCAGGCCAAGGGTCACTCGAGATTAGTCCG
2.56

###

Assign PBM binding z-score to each entry below.
- Tested on: RARa:RXR (NR concentration 270 nM, RXRa partner concentration 90 nM)
- ASSAY: PBM binding z-score (relative to random genomic background probes); higher = stronger binding; sequences stand for … in GC…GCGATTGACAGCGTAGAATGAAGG
Format: numeric value only, no unit, no commentary.

Name the reported PBM binding z-score value associated with the sequence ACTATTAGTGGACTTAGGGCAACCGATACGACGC
-0.1

Lookup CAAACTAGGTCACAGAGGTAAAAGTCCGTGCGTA
3.47

Lookup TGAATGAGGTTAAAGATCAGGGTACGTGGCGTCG
3.31

Lookup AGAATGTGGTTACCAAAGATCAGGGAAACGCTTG
-0.178

Lookup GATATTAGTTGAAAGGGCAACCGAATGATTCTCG
1.81

Lookup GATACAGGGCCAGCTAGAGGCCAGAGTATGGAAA
-0.464

Lookup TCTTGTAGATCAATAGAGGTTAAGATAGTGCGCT
2.09

Lookup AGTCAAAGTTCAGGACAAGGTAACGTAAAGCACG
3.09

Lookup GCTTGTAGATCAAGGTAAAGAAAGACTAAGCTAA
0.178

Lookup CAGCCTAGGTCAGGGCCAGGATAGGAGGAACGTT
0.879

Lookup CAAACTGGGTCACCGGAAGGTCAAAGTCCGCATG
6.73

Lookup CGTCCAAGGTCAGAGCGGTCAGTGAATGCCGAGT
3.14

Lookup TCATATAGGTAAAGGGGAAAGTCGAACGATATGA
0.562

Lookup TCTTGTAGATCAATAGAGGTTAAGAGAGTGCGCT
1.73

Lookup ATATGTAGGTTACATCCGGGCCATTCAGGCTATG
0.816

Lookup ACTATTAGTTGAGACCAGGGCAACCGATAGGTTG
0.191

Lookup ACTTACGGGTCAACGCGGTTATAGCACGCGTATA
4.45

Lookup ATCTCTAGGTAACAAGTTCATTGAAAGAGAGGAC
2.06

Lookup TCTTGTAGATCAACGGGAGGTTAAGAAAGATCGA
1.14

Lookup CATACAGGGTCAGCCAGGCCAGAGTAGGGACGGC
3.13

###

Assign PBM binding z-score to each entry below.
- Tested on: PXR homodimer (NR concentration 270 nM)
- ASSAY: PBM binding z-score (relative to random genomic background probes); higher = stronger binding; sequences stand for … in GC…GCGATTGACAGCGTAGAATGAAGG
Format: numeric value only, no unit, no commentary.

Write down the reported PBM binding z-score of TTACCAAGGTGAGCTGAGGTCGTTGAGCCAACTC , test system: PXR homodimer (NR concentration 270 nM).
0.369

Lookup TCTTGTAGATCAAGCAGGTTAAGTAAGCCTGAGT
0.247

Lookup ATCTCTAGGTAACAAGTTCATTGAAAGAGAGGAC
5.1

Lookup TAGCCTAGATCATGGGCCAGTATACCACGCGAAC
-0.709

Lookup TCATATAGGTAAAGGTGAAAGTTGAACGATATGA
0.333

Lookup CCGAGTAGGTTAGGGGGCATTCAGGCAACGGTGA
1.47

Lookup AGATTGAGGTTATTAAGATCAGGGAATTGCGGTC
0.669

Lookup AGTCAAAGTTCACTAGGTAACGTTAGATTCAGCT
2.61

Lookup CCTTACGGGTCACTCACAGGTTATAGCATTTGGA
0.559

Lookup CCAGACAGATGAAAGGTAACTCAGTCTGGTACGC
0.0132

Lookup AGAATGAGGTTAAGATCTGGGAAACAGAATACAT
0.115

Lookup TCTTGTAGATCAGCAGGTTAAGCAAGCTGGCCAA
-0.446

Lookup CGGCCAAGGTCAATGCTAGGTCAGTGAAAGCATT
0.802

Lookup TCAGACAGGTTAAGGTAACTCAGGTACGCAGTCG
0.461

Lookup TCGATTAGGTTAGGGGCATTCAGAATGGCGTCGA
0.447

Lookup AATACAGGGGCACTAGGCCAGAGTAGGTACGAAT
-0.158

Lookup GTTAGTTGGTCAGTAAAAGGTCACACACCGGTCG
1.74

Lookup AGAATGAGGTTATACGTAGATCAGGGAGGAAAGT
0.618

###

Assign PBM binding z-score to each entry below.
- System: RARb:RXRa (NR concentration 270 nM, RXRa partner concentration 90 nM)
- ASSAY: PBM binding z-score (relative to random genomic background probes); higher = stronger binding; sequences stand for … in GC…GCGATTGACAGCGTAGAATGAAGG
Format: numeric value only, no unit, no commentary.

Name the reported PBM binding z-score value associated with the sequence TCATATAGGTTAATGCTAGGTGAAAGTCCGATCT
1.43

Lookup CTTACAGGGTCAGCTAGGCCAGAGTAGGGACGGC
4.04

Lookup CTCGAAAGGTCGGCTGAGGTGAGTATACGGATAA
3.56

Lookup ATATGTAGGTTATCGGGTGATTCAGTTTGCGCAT
1.15

Lookup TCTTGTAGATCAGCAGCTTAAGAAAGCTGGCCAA
-0.491

Lookup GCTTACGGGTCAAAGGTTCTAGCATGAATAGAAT
3.82

Lookup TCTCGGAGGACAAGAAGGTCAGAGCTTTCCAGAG
3.07

Lookup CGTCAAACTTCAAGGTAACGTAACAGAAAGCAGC
0.507

Lookup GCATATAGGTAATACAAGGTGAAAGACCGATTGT
0.568

Lookup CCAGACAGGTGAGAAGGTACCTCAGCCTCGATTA
0.313

Lookup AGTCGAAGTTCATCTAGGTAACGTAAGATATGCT
3.05

Lookup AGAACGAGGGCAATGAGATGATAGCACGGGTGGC
2.05

Lookup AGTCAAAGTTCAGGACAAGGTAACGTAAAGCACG
4.38

Lookup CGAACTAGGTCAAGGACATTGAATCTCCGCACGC
3.98

Lookup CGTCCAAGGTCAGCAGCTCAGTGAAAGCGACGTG
4.83

Lookup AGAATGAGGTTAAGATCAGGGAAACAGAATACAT
2.01

Lookup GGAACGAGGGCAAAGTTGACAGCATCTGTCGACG
2.65

Lookup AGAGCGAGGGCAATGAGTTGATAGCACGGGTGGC
2.13

Lookup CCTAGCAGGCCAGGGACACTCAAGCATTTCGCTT
0.347

Lookup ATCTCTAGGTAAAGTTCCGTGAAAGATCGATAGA
0.403

Lookup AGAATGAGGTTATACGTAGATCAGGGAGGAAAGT
1.47

Lookup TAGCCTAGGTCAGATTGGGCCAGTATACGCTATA
3.16

Lookup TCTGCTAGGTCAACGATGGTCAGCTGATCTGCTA
4.03

Lookup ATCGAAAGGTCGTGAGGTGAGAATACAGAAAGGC
4.13

Lookup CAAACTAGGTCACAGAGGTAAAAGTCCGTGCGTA
4.35

Lookup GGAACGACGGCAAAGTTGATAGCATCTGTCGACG
-0.341

Lookup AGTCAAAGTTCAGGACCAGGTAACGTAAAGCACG
4.37

Lookup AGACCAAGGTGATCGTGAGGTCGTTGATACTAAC
1.32

Lookup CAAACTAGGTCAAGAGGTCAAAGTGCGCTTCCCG
5.47

Lookup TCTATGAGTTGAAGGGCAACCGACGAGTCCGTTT
1.37

Lookup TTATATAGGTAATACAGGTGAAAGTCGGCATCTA
0.616

Lookup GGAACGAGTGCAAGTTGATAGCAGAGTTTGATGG
0.365
